The values you see were collected from patent US20220016254A1.

# System: T1, human beta-Klotho (human, UniProt Q86Z14 1-1044)
# T1 sequence (looked up): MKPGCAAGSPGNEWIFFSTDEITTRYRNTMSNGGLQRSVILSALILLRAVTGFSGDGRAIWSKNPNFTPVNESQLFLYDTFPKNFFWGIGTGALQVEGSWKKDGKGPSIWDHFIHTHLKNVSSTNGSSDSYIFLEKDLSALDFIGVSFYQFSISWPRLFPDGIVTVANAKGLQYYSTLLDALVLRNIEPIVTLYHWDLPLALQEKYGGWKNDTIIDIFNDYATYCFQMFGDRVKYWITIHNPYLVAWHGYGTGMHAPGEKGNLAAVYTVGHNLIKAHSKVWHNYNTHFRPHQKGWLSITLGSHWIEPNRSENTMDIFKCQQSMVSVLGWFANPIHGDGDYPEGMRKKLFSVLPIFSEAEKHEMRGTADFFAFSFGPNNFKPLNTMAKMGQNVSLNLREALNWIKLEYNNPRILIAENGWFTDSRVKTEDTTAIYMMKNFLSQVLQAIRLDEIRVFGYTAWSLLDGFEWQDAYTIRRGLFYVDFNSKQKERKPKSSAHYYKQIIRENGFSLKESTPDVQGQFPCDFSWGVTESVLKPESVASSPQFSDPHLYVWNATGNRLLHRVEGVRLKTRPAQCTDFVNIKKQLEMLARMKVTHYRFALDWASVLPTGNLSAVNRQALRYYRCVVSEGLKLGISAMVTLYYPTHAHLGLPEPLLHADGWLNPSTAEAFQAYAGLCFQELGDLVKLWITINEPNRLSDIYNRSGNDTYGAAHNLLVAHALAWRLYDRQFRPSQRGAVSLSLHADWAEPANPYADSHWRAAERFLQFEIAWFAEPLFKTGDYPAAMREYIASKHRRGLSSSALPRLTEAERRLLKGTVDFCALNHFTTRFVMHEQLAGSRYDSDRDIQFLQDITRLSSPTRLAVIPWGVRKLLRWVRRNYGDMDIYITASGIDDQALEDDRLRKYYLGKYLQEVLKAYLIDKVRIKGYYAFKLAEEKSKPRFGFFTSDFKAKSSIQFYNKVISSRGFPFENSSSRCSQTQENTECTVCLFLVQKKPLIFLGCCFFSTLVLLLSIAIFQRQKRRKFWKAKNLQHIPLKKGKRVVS
# Experiment Notes: cell-based or functional assay
Experimental Endpoint: FGF21 activity (EC50, nM); p-ERK levels

Binder	Experimental Endpoint	Value Measured
Compound 15 (ligand, Moiety A (HOOC-(CH2)16-CO-gGlu-2XADO) on 231K of fusion polypeptide) HGEGTFTSDVSSYLEEQAAREFIAWLVRGGGGGGGSGGGGSGGGGSGGGGSHPIPDSSPLLQFGGQVRQRYLYTDDAQQTEAHLEIREDGTVGGAADQSPESLLQLRALRPGVIQILGVRTSRFLCQRPDGALYGSLHFDPEACSFRELLLEDGYNVYQSEAHGLPLHLPGQRSPHRDPAPRGPARFLPLPGLPPALPEPPGILAPQPPDVGSSDPLSLVGPSQGRSPSYKS	FGF21 activity (EC50, nM); p-ERK levels	7.3 nM

Record summary for Compound 5 (ligand, Moiety A (HOOC-(CH2)16-CO-gGlu-2XADO) on 51K and 222K of fusion polypeptide) HGEGTFTSDVSSYLEEQAAREFIAWLVRGGGGGGGSGGGGSGGGGSGGGGKHPIPDSSPLLQFGGQVRQRYLYTDDAQQTEAHLEIREDGTVGGAADQSPESLLQLRALRPGVIQILGVRTSRFLCQRPDGALYGSLHFDPEACSFRELLLEDGYNVYQSEAHGLPLHLPGQRSPHRDPAPRGPARFLPLPGLPPALPEPPGILAPQPPDVGSSDPLSLVGKSQGRSPSYAS : reported FGF21 activity (EC50, nM); p-ERK levels = 12.9 nM
